Documented Ratio Ki across a set of molecules
Organism: Homo sapiens
Assay: Selectivity ratio of Ki for human PDE7A to Ki for human PDE10A2
REPORTED PROPERTY: Ratio Ki

>>> df
                      smiles_representation  censoring_sign  numeric_readout
0       Cc1nc(C)c(CNc2nc(C3CC3)nc(Cl)c2C)s1               >             1000
1                    Cc1c(Cl)nc(C2CC2)nc1Cl               =                1
2  Cc1nc(C)c(CNc2nc(OCCCc3ccc4ccccc4n3)nc(Cl)c2C)s1               >             1000
3                  CCCNc1nc(C2CC2)nc(Cl)c1C               =               25
